All values here come from ChEMBL document CHEMBL4689842.

tested on: Fibroblast; experiment: Multiplex assay against human fibroblast; format: toxicity, cell-based; conditions: 12 h, 10 µM, compound concentration 10 uM, replicate 2
PROPERTY_LABEL: Population Fragmented Nuclei (%)

* NC(=O)c1cccc(-c2cc(Nc3ccc(OC(F)(F)F)cc3)ncn2)c1 | 50
* COc1cc2ncnc(Nc3ccc(F)c(Cl)c3)c2cc1NC(=O)/C=C/CN1CCCCC1 [DACOMITINIB ANHYDROUS] | 47
* Cc1ccc(C(=O)Nc2cccc(C(F)(F)F)c2)cc1Nc1nc(-c2cccnc2)nc2c1cnn2C | 18
* Cc1cn(-c2cc(NC(=O)c3ccc(C)c(Nc4nccc(-c5cccnc5)n4)c3)cc(C(F)(F)F)c2)cn1 | 18
* O=C(Nc1ccc(-c2ccnc(Nc3ccc(N4CCOCC4)cc3)n2)cc1)[C@@H]1CCCN1 | 7
* CNc1cc(Oc2cc(C(=O)Nc3cc(N4CCN(C)CC4)cc(C(F)(F)F)c3)ccc2C)ncn1 | 24
* CCc1cccc(CC)c1NC(=O)c1nn(C)c2c1CCc1cnc(Nc3ccc(C(=O)NC4CCN(C)CC4)cc3OC(F)(F)F)nc1-2 | 12
* O=C(Nc1ccc(-n2nc(-c3cccnc3)cc2C(F)(F)F)cn1)c1ccc(-c2ccccc2)c(F)c1 | 18
* CCOc1cc(C(=O)N2CCC(N3CCN(C)CC3)CC2)ccc1Nc1ncc2c(n1)N(C1CCCC1)c1ccccc1C(=O)N2C | 21
* CNC(=O)c1ccc(Nc2nc(OC3CCCC3)c3c(-c4ccc5nc(C)oc5c4)c[nH]c3n2)c(OC)c1 | 60
* CCN1CCN(Cc2ccc(Nc3ncc(F)c(-c4cc(F)c5nc(C)n(C(C)C)c5c4)n3)nc2)CC1.CS(=O)(=O)O | 32
* CCn1cc(-c2ccnc3[nH]c(-c4cccc(CN(C)C)c4)cc23)c(-c2ccc(NC(=O)N(C)C)cc2)n1 | 54
* O=C1N/C(=N/c2ccccc2F)S/C1=C\c1ccc(C(=O)O)cc1 | 4
* COc1ccc(S(=O)(=O)N(CCO)c2ccccc2CN(C)C/C=C/c2ccc(Cl)cc2)cc1.O=P(O)(O)O | 61
* Cl.Oc1ccc2c3c1O[C@H]1c4[nH]c5c(c4C[C@@]4(O)[C@@H](C2)N(CC2CC2)CC[C@]314)C[C@@]1(O)[C@H]2Cc3ccc(O)c4c3[C@@]1(CCN2CC1CC1)[C@H]5O4 | 12
* Cc1cc(C)c(S(=O)(=O)N(Cc2ccc(-c3cccc(S(C)(=O)=O)c3)cc2)Cc2ccc(C(F)(F)F)o2)c(C)c1 | 14
* COc1cccc2cc(-c3nc([C@H]4CC[C@H](C(=O)O)CC4)n4ncnc(N)c34)[nH]c12 | 65
* CN1CCC(=C2c3ccccc3CC(=O)c3sccc32)CC1.O=C(O)/C=C/C(=O)O [KETOTIFEN FUMARATE] | 2
* O=C1NC(=O)C(c2cnc3ccccn23)=C1c1cn2c3c(cc(F)cc13)CN(C(=O)N1CCCCC1)CC2 | 9
* C=C1/C(=C\C=C2/CCC[C@]3(C)[C@@H]([C@H](C)/C=C/[C@H](C)C(C)C)CC[C@@H]23)C[C@@H](O)C[C@@H]1O | 27
* CCc1cccc(CC)c1NC(=O)c1nn(C)c2c1CCc1cnc(Nc3ccc(N4CCN(C)CC4)cc3OC)nc1-2 | 51
